- testedSystem: α1G T-type calcium channel (Homo sapiens)
- Construct: host or cells: HEK293
- Sequence (O43497 whole entry): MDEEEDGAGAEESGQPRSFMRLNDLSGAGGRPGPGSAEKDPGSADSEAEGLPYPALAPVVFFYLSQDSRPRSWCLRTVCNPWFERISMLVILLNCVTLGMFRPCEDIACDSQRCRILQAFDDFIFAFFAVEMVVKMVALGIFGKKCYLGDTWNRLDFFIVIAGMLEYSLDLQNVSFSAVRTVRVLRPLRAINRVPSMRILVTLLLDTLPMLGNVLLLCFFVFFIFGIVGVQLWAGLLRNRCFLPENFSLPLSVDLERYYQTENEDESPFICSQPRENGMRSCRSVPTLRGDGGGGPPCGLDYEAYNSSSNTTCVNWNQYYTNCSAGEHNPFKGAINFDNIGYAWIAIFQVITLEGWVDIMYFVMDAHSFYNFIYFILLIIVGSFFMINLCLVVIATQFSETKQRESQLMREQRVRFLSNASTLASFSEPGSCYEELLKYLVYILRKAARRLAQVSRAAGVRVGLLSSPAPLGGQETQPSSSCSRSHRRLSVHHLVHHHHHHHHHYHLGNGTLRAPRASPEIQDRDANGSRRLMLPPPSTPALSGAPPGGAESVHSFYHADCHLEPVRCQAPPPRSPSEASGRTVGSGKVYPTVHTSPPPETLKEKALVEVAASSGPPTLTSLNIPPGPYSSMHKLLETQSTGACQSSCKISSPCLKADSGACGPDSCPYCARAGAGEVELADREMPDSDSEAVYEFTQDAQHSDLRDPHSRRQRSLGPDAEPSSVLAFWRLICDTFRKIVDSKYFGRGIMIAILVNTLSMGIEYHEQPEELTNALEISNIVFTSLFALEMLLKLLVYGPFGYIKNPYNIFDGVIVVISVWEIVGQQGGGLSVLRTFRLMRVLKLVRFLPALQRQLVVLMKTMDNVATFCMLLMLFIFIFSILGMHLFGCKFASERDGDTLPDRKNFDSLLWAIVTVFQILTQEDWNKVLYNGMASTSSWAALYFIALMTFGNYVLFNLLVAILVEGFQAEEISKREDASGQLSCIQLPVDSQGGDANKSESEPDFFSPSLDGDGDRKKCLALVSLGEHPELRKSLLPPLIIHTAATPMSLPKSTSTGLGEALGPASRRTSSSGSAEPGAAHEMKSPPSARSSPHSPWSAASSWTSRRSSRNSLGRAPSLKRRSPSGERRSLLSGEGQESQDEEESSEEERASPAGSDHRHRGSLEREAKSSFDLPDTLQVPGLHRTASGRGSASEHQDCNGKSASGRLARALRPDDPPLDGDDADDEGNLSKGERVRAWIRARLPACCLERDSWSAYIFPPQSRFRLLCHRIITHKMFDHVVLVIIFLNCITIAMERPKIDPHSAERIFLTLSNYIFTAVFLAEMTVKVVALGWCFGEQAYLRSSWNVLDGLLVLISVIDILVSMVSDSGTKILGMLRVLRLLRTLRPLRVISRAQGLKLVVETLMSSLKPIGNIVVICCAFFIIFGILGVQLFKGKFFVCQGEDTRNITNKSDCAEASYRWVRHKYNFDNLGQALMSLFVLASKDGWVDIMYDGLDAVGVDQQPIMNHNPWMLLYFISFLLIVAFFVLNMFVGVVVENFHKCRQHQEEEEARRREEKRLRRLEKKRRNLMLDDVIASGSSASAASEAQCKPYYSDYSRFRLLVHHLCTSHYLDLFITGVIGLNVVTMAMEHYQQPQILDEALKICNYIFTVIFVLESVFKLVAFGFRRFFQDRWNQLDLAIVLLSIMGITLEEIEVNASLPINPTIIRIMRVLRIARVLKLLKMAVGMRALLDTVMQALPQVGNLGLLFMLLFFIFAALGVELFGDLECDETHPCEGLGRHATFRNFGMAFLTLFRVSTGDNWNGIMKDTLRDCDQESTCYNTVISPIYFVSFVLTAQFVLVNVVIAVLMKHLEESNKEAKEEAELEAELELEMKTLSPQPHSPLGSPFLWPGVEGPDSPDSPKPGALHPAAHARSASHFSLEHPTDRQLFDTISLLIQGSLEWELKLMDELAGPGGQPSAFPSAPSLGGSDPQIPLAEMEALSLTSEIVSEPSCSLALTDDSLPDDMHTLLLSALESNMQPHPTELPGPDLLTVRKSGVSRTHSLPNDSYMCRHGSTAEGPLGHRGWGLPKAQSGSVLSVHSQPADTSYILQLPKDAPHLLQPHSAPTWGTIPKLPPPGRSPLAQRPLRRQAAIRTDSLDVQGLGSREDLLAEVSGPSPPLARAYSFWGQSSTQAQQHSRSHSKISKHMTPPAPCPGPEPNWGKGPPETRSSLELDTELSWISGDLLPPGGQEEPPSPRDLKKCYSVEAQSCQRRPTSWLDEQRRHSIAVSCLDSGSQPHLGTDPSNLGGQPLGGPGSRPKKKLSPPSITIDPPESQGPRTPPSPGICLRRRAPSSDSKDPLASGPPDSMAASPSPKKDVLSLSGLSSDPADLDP
- protocolSummary: Assay for % inhibiting activity against T-type calcium channel using FDSS6000 (fluo-3 calcium imaging, KCl activation)
- Format: cell-based
- conditionInfo: HEK293, 10 μM; HEK293 cells stably expressing α1G T-type calcium channel and Kir2.1; compounds of the examples; read-out: FDSS (% inhibition)/10uM
metric: inhibition at 10 µM (%)
Reply with just the number (in %).

# molecule, unitOfMeasure, inhibition at 10 µM
records = [
    ("CCCCN1C(=NC23CC4CC(CC(C4)C2)C3)SCC1CC(=O)Nc1ccc(CC)cc1.Cl (stereo not drawn) [KHG24782, hydrochloride]", "%", 30.6),
    ("CC(C)N1C(=NC23CC4CC(CC(C4)C2)C3)SCC1CC(=O)Nc1ccc(Cl)cc1F.Cl (stereo not drawn) [KHG24834, hydrochloride]", "%", 65.7),
    ("CCCCN1C(=NC2CCCCC2)SCC1CC(=O)Nc1ccc(Oc2ccccc2)cc1.Cl (stereo not drawn) [KHG24281, hydrochloride]", "%", 31.4),
    ("CC1SC(=NC2CCCCCC2)N(C)C1CC(=O)Nc1ccc(Cl)cc1.Cl (stereo not drawn) [KHG24643, hydrochloride]", "%", 65.4),
]

Ask: Output inhibition at 10 µM of CCN1C(=NC2CCCCC2)SCC1CC(=O)Nc1ccc(C)cc1Cl.Cl (stereo not drawn) [KHG24420, hydrochloride]
Result: 58.5

Ask: Output inhibition at 10 µM of CCCCN1C(=NC23CC4CC(CC(C4)C2)C3)SCC1CC(=O)Nc1ccc(Cl)cc1F.Cl (stereo not drawn) [KHG24783, hydrochloride]
Result: 54.4

Ask: Output inhibition at 10 µM of CC(C)c1ccc(NC(=O)CC2C(C)SC(=NC3CCCCCC3)N2C)cc1.Cl (stereo not drawn) [KHG24519, hydrochloride]
Result: 55.7

Ask: Output inhibition at 10 µM of CCCN1C(=NC2CCCCC2)SCC1CC(=O)Nc1ccc(C(C)C)cc1.Cl (stereo not drawn) [KHG24294, hydrochloride]
Result: 65.7

Ask: Output inhibition at 10 µM of Cl.O=C(CC1CSC(=NC2CCCCC2)N1C1CC1)Nc1ccc(Oc2ccccc2)cc1 (stereo not drawn) [KHG24315, hydrochloride]
Result: 60.8

Ask: Output inhibition at 10 µM of Cl.O=C(CC1CSC(=NC2CCCCC2)N1C1CC1)Nc1ccc(Br)cc1 (stereo not drawn) [KHG24273, hydrochloride]
Result: 48.5

Ask: Output inhibition at 10 µM of CC1SC(=NC2CCCCC2)N(C)C1CC(=O)Nc1ccc(OC(F)(F)F)cc1.Cl (stereo not drawn) [KHG24524, hydrochloride]
Result: 41.3

Ask: Output inhibition at 10 µM of CN1C(=NC2CCCC2)SCC1CC(=O)Nc1cc([N+](=O)[O-])ccc1F.Cl (stereo not drawn) [KHG24104, hydrochloride]
Result: 34.3

Ask: Output inhibition at 10 µM of CCCN1C(=NC23CC4CC(CC(C4)C2)C3)SCC1CC(=O)Nc1cc(Cl)ccc1F.Cl (stereo not drawn) [KHG24817, hydrochloride]
Result: 60.5

Ask: Output inhibition at 10 µM of Br.CN1C(=NC2CCCCCC2)SCC1C(=O)NCc1ccccc1C(F)(F)F (stereo not drawn) [KHG24670, hydrobromide]
Result: 46.7

Ask: Output inhibition at 10 µM of CCN1C(=NC2CCCCC2)SCC1CC(=O)NCc1ccc(C)cc1.Cl (stereo not drawn) [KHG24292, hydrochloride]
Result: 43.9

====

- testedSystem: α1G T-type calcium channel (Homo sapiens)
- Construct: host or cells: HEK293
- protocolSummary: Assay for % inhibiting activity against T-type calcium channel using FDSS6000 (fluo-3 calcium imaging, KCl activation)
- Assay type: cell-based
- conditionInfo: 10 μM; FDSS (% inhibition); comparative compounds where R6 is a phenyl group; read-out: FDSS
inhibition at 10 µM reference
Reply with just the number (in %).

Study these solved cases before continuing.
# compound, inhibition at 10 µM (%)
rows = [
    ("CN1C(=Nc2ccc(Cl)cc2)SCC1CC(=O)Nc1ccc(Cl)cc1F.Cl (stereo not drawn) [KHG23064, hydrochloride]", 7.37),
    ("CC(C)c1ccc(NC(=O)CC2CSC(=Nc3ccc(F)c(Cl)c3)N2C)cc1.Cl (stereo not drawn) [KHG21947, hydrochloride]", 23.9),
    ("CN1C(=Nc2ccc(OC(F)(F)F)cc2)SCC1CC(=O)Nc1ccc(Cl)cc1F.Cl (stereo not drawn) [KHG23070, hydrochloride]", 7.44),
]

Ask: Output inhibition at 10 µM of CCCCc1ccc(N=C2SCC(CC(=O)Nc3ccc(Cl)cc3)N2C)cc1.Cl (stereo not drawn) [KHG21654, hydrochloride]
Result: -1.13

Ask: Output inhibition at 10 µM of Cc1ccc(N=C2SCC(CC(=O)Nc3ccc(Cl)cc3F)N2C)cc1.Cl (stereo not drawn) [KHG23069, hydrochloride]
Result: 4.33

Ask: Output inhibition at 10 µM of CN1C(=Nc2ccc(C(F)(F)F)cc2)SCC1CC(=O)Nc1ccc(Cl)cc1F.Cl (stereo not drawn) [KHG23068, hydrochloride]
Result: 5.76

Ask: Output inhibition at 10 µM of COc1ccc(N=C2SCC(CC(=O)Nc3ccc(Cl)cc3)N2C)cc1.Cl (stereo not drawn) [KHG21648, hydrochloride]
Result: 26.2

Ask: Output inhibition at 10 µM of CC(C)c1ccc(NC(=O)CC2CSC(=Nc3cccc(Br)c3)N2C)cc1.Cl (stereo not drawn) [KHG21949, hydrochloride]
Result: 5.41

Ask: Output inhibition at 10 µM of CN1C(=Nc2cccc(F)c2)SCC1CC(=O)Nc1ccc(Cl)cc1F.Cl (stereo not drawn) [KHG32076, hydrochloride]
Result: 20.5

Ask: Output inhibition at 10 µM of CCCCc1ccc(N=C2SCC(CC(=O)Nc3ccc(Cl)cc3F)N2C)cc1.Cl (stereo not drawn) [KHG23066, hydrochloride]
Result: 1.3

Ask: Output inhibition at 10 µM of CC(C)Oc1cc(N=C2SCC(CC(=O)Nc3ccc(C(C)C)cc3)N2C)c(F)cc1Cl.Cl (stereo not drawn) [KHG21944, hydrochloride]
Result: 5.89

Ask: Output inhibition at 10 µM of CC(C)Oc1cccc(N=C2SCC(CC(=O)Nc3ccc(Cl)cc3)N2C)c1.Cl (stereo not drawn) [KHG21653, hydrochloride]
Result: -2.17

Ask: Output inhibition at 10 µM of CN1C(=Nc2ccc(C#N)cc2)SCC1CC(=O)Nc1ccc(Cl)cc1F.Cl (stereo not drawn) [KHG23067, hydrochloride]
Result: -2.73

Ask: Output inhibition at 10 µM of CC(C)c1ccc(N=C2SCC(CC(=O)Nc3ccc(Cl)cc3F)N2C)cc1.Cl (stereo not drawn) [KHG23071, hydrochloride]
Result: 15.5

Ask: Output inhibition at 10 µM of CC(C)c1ccc(NC(=O)CC2CSC(=Nc3ccc(C#N)cc3)N2C)cc1.Cl (stereo not drawn) [KHG21945, hydrochloride]
Result: 7.71

====

melting point reference
Reply with just the number (in °C).

Study these solved cases before continuing.
# molecule, unitOfMeasure, val
measured = [
    ("Cl.O=C(CC1CSC(=NC2CCCCC2)N1Cc1ccccc1)Nc1cc(Cl)ccc1F (stereo not shown) [KHG24408]", "°C", 194.8),
    ("CN1C(=NCCc2ccccc2)SCC1CC(=O)Nc1ccc(Cl)cc1.Cl (stereo not shown) [KHG24228]", "°C", 226.7),
    ("CCc1ccc(N=C2SCC(CC(=O)Nc3ccc(Cl)cc3F)N2C)cc1.Cl (stereo not shown) [KHG23072]", "°C", 242),
    ("CC(C)c1ccc(NC(=O)CC2CSC(=NC3CCCCC3)N2Cc2ccccc2)cc1.Cl (stereo not shown) [KHG24303]", "°C", 202.9),
    ("Br.CN1C(=NC2CCCCCC2)SCC1C(=O)Nc1cc(Cl)cc(Cl)c1 (stereo not shown)", "°C", 275.2),
    ("Br.CN1C(=NC2CCCCCC2)SCC1C(=O)Nc1cc(C(F)(F)F)cc(C(F)(F)F)c1 (stereo not shown)", "°C", 274.1),
]

Ask: Output melting point of CCCCc1ccc(NC(=O)CC2CSC(=NC3CCCCC3)N2CCC)cc1.Cl (stereo not shown) [KHG24291]
Result: 201.4

Ask: Output melting point of Cl.O=C(CC1CSC(=NC2CCCCC2)N1C1CC1)Nc1cc(Cl)ccc1F (stereo not shown) [KHG24271]
Result: 183.7

Ask: Output melting point of CCCCc1ccc(NC(=O)CC2CSC(=NC34CC5CC(CC(C5)C3)C4)N2CCC)cc1.Cl (stereo not shown) [KHG24808]
Result: 213

Ask: Output melting point of Cl.O=C(CC1CSC(=NC2CCCCC2)N1Cc1ccccc1)Nc1ccc(Oc2ccccc2)cc1 (stereo not shown)
Result: 209.5
